Assay Readout: melting point

Solved cases below.
{"Compound String": "CCN1CCC(c2cn3c(=O)cc(-c4cc(C)c5nc(C)cn5c4)nc3cn2)CC1", "melting point": "242 to 244 °C"}
{"Compound String": "COc1ccc(-c2cc(=O)n3cc(N4C[C@H]5CN(C)C[C@H]5C4)cc(C)c3n2)cc1OC", "melting point": "212 to 218 °C"}

Dear colleague, I am looking for the recorded melting point of the following compound: COc1ccc(-c2cc(=O)n3cc(N4C[C@H]5CNC[C@H]5C4)cc(C)c3n2)cc1OC 215 °C

Dear colleague, I am looking for the recorded melting point of the following compound: COc1ccc(-c2cc(=O)n3cc(N4CCC(N(C)CCO)CC4)cc(C)c3n2)cc1OC 164 to 171 °C

Dear colleague, I am looking for the recorded melting point of the following compound: Cc1cc(C2CCNCC2)cn2c(=O)cc(-c3ccc4c(cnn4C)c3)nc12 212 to 217 °C

Dear colleague, I am looking for the recorded melting point of the following compound: Cc1nc2ccc(-c3cc(=O)n4nc(C5CCN(C)CC5)ccc4n3)cc2o1 272 to 275 °C

Dear colleague, I am looking for the recorded melting point of the following compound: Cc1cn2cc(-c3cc(=O)n4cc(C5CCN(CCO)CC5)ncc4n3)cc(C)c2n1 242 to 244 °C

Dear colleague, I am looking for the recorded melting point of the following compound: O=c1cc(-c2ccc(O)c(OC(F)F)c2)nc2ccc(N3CCNCC3)cn12 233 to 237 °C

Dear colleague, I am looking for the recorded melting point of the following compound: Cc1cn2nc(-c3cc(=O)n4cc(N5C[C@@H](C)N(C)[C@@H](C)C5)cc(C)c4n3)cc2c(C)n1 297 to 310 °C

Dear colleague, I am looking for the recorded melting point of the following compound: COc1ccc(-c2cc(=O)n3cc(N4CCNCC4)ccc3n2)cc1 182 to 184 °C

Dear colleague, I am looking for the recorded melting point of the following compound: CCN1CCN(c2ccc3nc(-c4cc5c(C6CC6)nc(C)cn5n4)cc(=O)n3c2)CC1 236 to 238 °C

Dear colleague, I am looking for the recorded melting point of the following compound: Cc1cn2cc(-c3cc(=O)n4cc(N5CCNCC5)ccc4n3)nc2c(C)n1 189 to 192 °C

Dear colleague, I am looking for the recorded melting point of the following compound: CCc1nc(C)cn2nc(-c3cc(=O)n4cc(N5CCN(C(C)C)[C@H](C)C5)ccc4n3)cc12 242 to 244 °C

Dear colleague, I am looking for the recorded melting point of the following compound: Cc1cn2nc(-c3cc(=O)n4cc(N5C[C@@H]6C[C@H]5CN6)ccc4n3)cc2c(C)n1 218 to 221 °C

Dear colleague, I am looking for the recorded melting point of the following compound: Cc1cn2cc(-c3cc(=O)n4cc(N5CCN(C)[C@@H](C)C5)ccc4n3)cc(Cl)c2n1 258 to 262 °C

Dear colleague, I am looking for the recorded melting point of the following compound: Cc1cn2cc(-c3ccc4nc(C5CCNCC5)cc(=O)n4c3)ccc2n1 255 to 258 °C

Dear colleague, I am looking for the recorded melting point of the following compound: Cc1cn2cc(-c3cc(=O)n4cc(C5=CCN(C)CC5)ccc4n3)ccc2n1 137 to 140 °C

Dear colleague, I am looking for the recorded melting point of the following compound: Cn1cc2cc(-c3cc(=O)n4cc(N5CCN(CCO)CC5)ncc4n3)ccc2n1 200 to 202 °C

Dear colleague, I am looking for the recorded melting point of the following compound: CN[C@H]1CC[C@@H](c2ccc3nc(-c4ccc(OC)c(OC)c4)cc(=O)n3c2)CC1 156 to 158 °C

Dear colleague, I am looking for the recorded melting point of the following compound: Cc1cn2nc(-c3cc(=O)n4cc(N5CCC(N(C)CCO)CC5)cc(C)c4n3)cc2c(C)n1 250 to 259 °C

Dear colleague, I am looking for the recorded melting point of the following compound: Cc1nc2cc(-c3cc(=O)n4cc(N5CCN6CCC[C@H]6C5)ccc4n3)ccc2s1 254 to 256 °C

Dear colleague, I am looking for the recorded melting point of the following compound: CCN1CC=C(c2ccc3nc(-c4cc5c(C)nc(C)cn5n4)cc(=O)n3c2)CC1 202 to 204 °C

Dear colleague, I am looking for the recorded melting point of the following compound: Cc1cn2cc(-c3cc(=O)n4cc(N5CCN[C@@H](C)C5)ccc4n3)cc(C3CC3)c2n1 246 to 250 °C

Dear colleague, I am looking for the recorded melting point of the following compound: COc1ccc(-c2cc(=O)n3cc(N4CCNCC4)cc(OC)c3n2)cc1OC 185 to 187 °C

---

Measured melting point by item

{"Compound String": "Cc1ccc(-c2cc(=O)n3cc(N4CCNCC4)ccc3n2)cc1", "melting point": "192 to 195 °C"}
{"Compound String": "Cc1cn2cc(-c3cc(=O)n4nc(C5CCN(C)CC5)ccc4n3)cc(Cl)c2n1", "melting point": "289 to 291 °C"}
{"Compound String": "CNC1CCN(c2cc(C)c3nc(-c4cc5c(C)nc(C)cn5n4)cc(=O)n3c2)CC1", "melting point": "218 to 227 °C"}
{"Compound String": "Cn1ccc2cc(-c3cc(=O)n4cc(N5CCNCC5)ccc4n3)cnc21", "melting point": "230 to 233 °C"}
{"Compound String": "Cc1cn2nc(-c3cc(=O)n4cc(N5CCN[C@H](C)C5)cc(C)c4n3)cc2c(C)n1", "melting point": "213 to 222 °C"}

Dear colleague, I am looking for the recorded melting point of the following compound: N#Cc1cc(F)cc(-c2cc(=O)n3cc(N4CCNCC4)ccc3n2)c1 238 to 244 °C

Dear colleague, I am looking for the recorded melting point of the following compound: Cc1nc2ccc(-c3cc(=O)n4cc(C5=CCNCC5)ccc4n3)cc2s1 124 to 126 °C

Dear colleague, I am looking for the recorded melting point of the following compound: COc1ccc(-c2cc(=O)n3cc(N4C[C@@H](O)[C@H](N(C)C)C4)ccc3n2)cc1F 223 to 228 °C

---

Assay Readout: melting point

{"Compound String": "Cc1ccc(-c2cc(=O)n3cc(N4CCNCC4)ccc3n2)cc1C", "melting point": "186 to 188 °C"}

Dear colleague, I am looking for the recorded melting point of the following molecule: Cn1cc2cc(-c3cc(=O)n4cc(N5CCNCC5)ncc4n3)ccc2n1 160 to 162 °C

Dear colleague, I am looking for the recorded melting point of the following molecule: COc1ccc(-c2cc(=O)n3cc(N4CCC(N(C)C)CC4)cc(C)c3n2)cc1F 141 to 145 °C

Dear colleague, I am looking for the recorded melting point of the following molecule: Cc1cn2cc(-c3cc(=O)n4cc(C5CCN(CCO)CC5)ncc4n3)ccc2n1 250 to 252 °C

---

Measured melting point by item

Solved cases below.
{"Compound String": "CCN1CCN(c2ccc3nc(-c4cc(Cl)c5nc(C)cn5c4)cc(=O)n3c2)C[C@H]1C", "melting point": "239 to 245 °C"}
{"Compound String": "CCc1nc(C)cn2nc(-c3cc(=O)n4cc(C5CCNCC5)cc(C)c4n3)cc12", "melting point": "241 to 249 °C"}
{"Compound String": "CCc1cc(-c2cc(=O)n3cc(N4CCN5CCC[C@H]5C4)ccc3n2)cn2cc(C)nc12", "melting point": "229 to 233 °C"}
{"Compound String": "COc1ccc(-c2cc(=O)n3cc(N4CCN[C@@H](C)C4)ccc3n2)cc1Cl", "melting point": "187 to 189 °C"}
{"Compound String": "O=c1cc(-c2cccc(F)c2)nc2ccc(N3CCNCC3)cn12", "melting point": "153 to 156 °C"}

Dear colleague, I am looking for the recorded melting point of the following molecule: CCc1cc(C2CCN(C)CC2)cn2c(=O)cc(-c3ccc(OC)c(OC)c3)nc12 146 °C

Dear colleague, I am looking for the recorded melting point of the following molecule: COc1ccc(-c2cc(=O)n3cc(N4C[C@H](O)[C@@H](N5CCCC5)C4)ccc3n2)cc1F 226 to 232 °C

Dear colleague, I am looking for the recorded melting point of the following molecule: CCc1nc2ccc(-c3cc(=O)n4cc(N5CCN[C@@H](C)C5)ccc4n3)cc2o1 168 to 170 °C

---

Assay Readout: melting point

{"Compound": "Cn1ncc2cc(-c3cc(=O)n4cc(N5CCNCC5)ccc4n3)ccc21 [Compound 490]", "melting point": "206 to 208 °C"}
{"Compound": "Cc1nc2cc(-c3cc(=O)n4cc(N5CCC(N(C)C)CC5)ccc4n3)ccc2s1 [Compound 347]", "melting point": "218 to 220 °C"}
{"Compound": "COc1ccc(-c2cnc3cc(N4CCNCC4)ccn3c2=O)cc1OC [Cpd 52]", "melting point": "175 to 179 °C"}
{"Compound": "Cc1cn2nc(-c3cc(=O)n4cc(N5CCN(C)[C@H](C)C5)cc(C)c4n3)cc2c(C)n1 [Compound 510]", "melting point": "244 to 253 °C"}
{"Compound": "Cc1nc2c(F)cc(-c3cc(=O)n4cc(N5CCN[C@@H](C)C5)ccc4n3)cc2o1 [Cpd 306]", "melting point": "207 to 209 °C"}

Dear colleague, I am looking for the recorded melting point of the following compound: Cc1cn2cc(-c3cc(=O)n4cc(N5CCN[C@H](C)C5)ccc4n3)cc(C3CC3)c2n1 [Compound 715] 246 to 250 °C

Dear colleague, I am looking for the recorded melting point of the following compound: Cc1cc2cc(-c3cc(=O)n4cc(N5CCN[C@@H](C)C5)ccc4n3)oc2c(C)n1 [Compound 488] 202 to 204 °C

Dear colleague, I am looking for the recorded melting point of the following compound: COc1ccc(-c2cc(=O)n3cc(N4CCCN(C)CC4)ccc3n2)cc1 [Compound 16] 137 to 141 °C

Reference for the values: patent US11753407B2
